Value source: PubChem BioAssay (NCI)

test system: KM12 colon; experiment: NCI-60 one-dose screen, 48 h (100 = growth as untreated, 0 = no growth, -100 = all killed); conditions: 10 µM unless noted
Compounds without any hit were thinned out: in the full panel of roughly 83,000, 20% have a hit.

[
  {
    "molecule": "Cc1nn(-c2nc3ccccc3s2)c(C)c1Oc1ccccc1O",
    "growth (%)": 63.6
  },
  {
    "molecule": "CCCCCCC(CC#N)(CCC)CCCC (stereo unspecified)",
    "growth (%)": 111
  },
  {
    "molecule": "O=C1Nc2ccc(Cl)cc2[C@@](C#CC2CC2)(C(F)(F)F)O1",
    "growth (%)": 86.1
  },
  {
    "molecule": "O=[N+]([O-])c1ccc(N=Nc2c(Cl)cc(O)cc2Cl)cc1",
    "growth (%)": -39.8
  },
  {
    "molecule": "O=C(Nc1nc2c(C(F)(F)F)cccc2s1)c1cc(Cl)ccc1O",
    "growth (%)": 10.5
  },
  {
    "molecule": "CCN(CC)CCSc1ncnc2c1cnn2-c1ccc(S(N)(=O)=O)cc1",
    "growth (%)": 106
  },
  {
    "molecule": "COc1cc(OC)c2c(c1Cl)O[C@]1(C2=O)C(OCc2ccccc2)=CC(=O)C[C@H]1C",
    "growth (%)": 7.93
  },
  {
    "molecule": "COc1cc2c(cc1OC)C(=O)/C(=C/c1cccc(OCC(=O)c3ccccc3)c1)C2",
    "growth (%)": 170
  },
  {
    "molecule": "COc1ccc(CC(=O)Nc2nn3c(-c4cc(C(F)(F)F)cc(C(F)(F)F)c4)nnc3s2)cc1",
    "growth (%)": 65.7
  },
  {
    "molecule": "COc1cc(/C=C\\C(C)=N\\Nc2ccccc2)ccc1O",
    "growth (%)": 52.8
  },
  {
    "molecule": "O=C(O)C1CCN(S(=O)(=O)c2ccc(-c3ccccc3)cc2)CC1",
    "growth (%)": 111
  },
  {
    "molecule": "COc1cc(C2CC(C3C(=O)N(C)C(=O)N(C)C3=O)=NN2c2cc(Cl)cc(Cl)c2)cc(OC)c1OC (stereo unspecified)",
    "growth (%)": 91.8
  },
  {
    "molecule": "CC(=O)Nc1ccc(C(=O)COc2cccc(/C=C3\\CCc4ccccc4C3=O)c2)cc1",
    "growth (%)": 91
  },
  {
    "molecule": "CC(=O)OCC(=O)[C@@]1(O)CC[C@H]2[C@@H]3CCC4=CC(=O)CC[C@]4(C)[C@@]3(F)[C@@H](O)C[C@@]21C",
    "growth (%)": 109
  },
  {
    "molecule": "CCOC(=O)C1C(=O)NC(C(=O)OCC)(C(=O)OCC)C1CC (stereo unspecified)",
    "growth (%)": 112
  },
  {
    "molecule": "Cc1onc(-c2ccccc2Cl)c1C(=O)N[C@@H]1C(=O)N2[C@@H]1SC(C)(C)[C@@H]2C(=O)O",
    "growth (%)": 108
  },
  {
    "molecule": "Fc1ccccc1C1c2ccccc2-c2nccn21 (stereo unspecified)",
    "growth (%)": 93.8
  },
  {
    "molecule": "CCOC(=O)c1cc2oc(/C=C/c3cc(=O)c4cc(Cl)ccc4o3)cc2[nH]1",
    "growth (%)": 62.8
  },
  {
    "molecule": "COc1ccc([N+](=O)[O-])c(S(=O)(=O)c2ccc(Cl)cc2)n1",
    "growth (%)": 97.7
  },
  {
    "molecule": "O=C1C2C(C(=O)N1CC[Se][Se]CCN1C(=O)C3C(C1=O)[C@H]1C=C[C@@H]3C1)[C@H]1C=C[C@@H]2C1 (stereo partly specified)",
    "growth (%)": 0.112
  },
  {
    "molecule": "NC(=NCCCCCCN=C(N)/N=C(\\N)Nc1ccc(Cl)cc1)/N=C(\\N)Nc1ccc(Cl)cc1",
    "growth (%)": -12
  },
  {
    "molecule": "NS(=O)(=O)c1cc2c(cc1Cl)NC=NS2(=O)=O",
    "growth (%)": 106
  },
  {
    "molecule": "COc1ccc2nc(-c3ccc(Cl)cc3)cc(-c3nnc(SCC(=O)Nc4ccc(C(C)=O)cc4)n3-c3ccccc3)c2c1",
    "growth (%)": 95.3
  },
  {
    "molecule": "Nc1nc2c(nnn2Cc2ccc(Cl)c(Cl)c2)c(=O)[nH]1",
    "growth (%)": 90.2
  },
  {
    "molecule": "COc1ccc2c3c(ccc2c1)C(=O)/C(=C\\O)CC3",
    "growth (%)": 99.5
  },
  {
    "molecule": "Clc1ccc(C2c3ccccc3-c3nccn32)c(Cl)c1 (stereo unspecified)",
    "growth (%)": 79.2
  }
]
